Entry source: paper PMC8548882

- Tested on: HEK 293T cells
- Format: cell-based, human
- Test settings: ratio of IC50 to GM
Ends that are not written are not given here.
Record True whenever Therapeutic index (TI) is at 2000 or higher; record False when lower.

Say whether VKKWVKKWVKKAVKKA-NH2 [VW2] shows Therapeutic index (TI) of 2000 or more.
False

----------
- Tested on: S.epidermidis 12228
- Type: cell-based, Staphylococcus epidermidis ATCC 12228
Ends that are not written are not given here.
So I've got a bunch of substances here, and I need their MIC values.
Give bare numbers, in µM.

Worked cases, answers included:
| Substance | MIC, µM |
| --- | --- |
| VKKWVKKWVKKAVKKW-NH2 [VW3] | 8 |
| VKKLVKKLVKKLVKKA-NH2 [VL3] | 32 |
| VKKLVKKLVKKAVKKL-NH2 [VL4] | 32 |
| VKKWVKKAVKKWVKKA-NH2 [VW1] | 64 |
| VKKWVKKWVKKWVKKA-NH2 [VW4] | 4 |
| VKKLVKKLVKKLVKKL-NH2 [VL5] | 4 |
| VKKWVKKWVKKAVKKA-NH2 [VW2] | 64 |

--- query ---
# get_value(readout= MIC, system= S.epidermidis 12228) for VKKWVKKWVKKWVKKW-NH2 [VW5]
2

----------
Exercise: state measured MIC for each of the substances provided.
- System: MRSA 43300
- Assay type: cell-based, Staphylococcus aureus ATCC 43300
- Test settings: microtiter dilution, 1×10^5CFU/ml, 18–24h at 37°C, visible turbidity
Ends that are not written are not given here.
Give bare numbers, in µM.

These solved cases illustrate the format of a correct answer.
| Substance | Unit info | Value reported |
| --- | --- | --- |
| VKKWVKKWVKKWVKKA-NH2 [VW4] | µM | 4 |
| VKKLVKKLVKKLVKKL-NH2 [VL5] | µM | 8 |
| VKKWVKKWVKKAVKKA-NH2 [VW2] | µM | 64 |
| VKKWVKKWVKKAVKKW-NH2 [VW3] | µM | 8 |

Query substance follows.
Please give the measured MIC for this substance: VKKWVKKWVKKWVKKW-NH2 [VW5]
2

----------
Field: Therapeutic index (TI). Provide a value for each of the substances that follow.
- Tested on: human red blood cells (hRBCs)
- Experiment summary: Hemolytic activity
- Assay type: cell-based
- Test settings: hRBC; ratio of MHC to GM
- Description: The hemolytic activity of peptides was reflected by the releasing amount of hemoglobin from erythrocytes lysis induced by peptides ([Dong et al., 2014a]). The informed consent was obtained from the volunteers (3 healthy 25-year-old male volunteers) before the experiment. […] After 1h incubation, the supernatant, obtained by centrifuging the plate 1,000g for 5min, was transferred to a brand-new plate for absorbance detection at 570nm. […]
Ends that are not written are not given here.

For orientation, consider the following solved cases.
| Substance | Therapeutic index (TI) |
| --- | --- |
| VKKLVKKLVKKLVKKL-NH2 [VL5] | > 26.89 |
| VKKLVKKAVKKLVKKA-NH2 [VL1] | >1.00 |
| VKKLVKKLVKKAVKKA-NH2 [VL2] | >1.09 |
| VKKWVKKWVKKAVKKA-NH2 [VW2] | > 3.08 |
| VKKWVKKWVKKWVKKA-NH2 [VW4] | > 38.1 |

Return reported Therapeutic index (TI) values for all items listed beneath this line.
1. VKKWVKKWVKKAVKKW-NH2 [VW3]
2. VKKWVKKWVKKWVKKW-NH2 [VW5]

1: > 17.44; 2: > 76.19

Identify the measured Therapeutic index (TI) of VKKWVKKAVKKWVKKA-NH2 [VW1] for human red blood cells (hRBCs).
> 1.68

----------
- Test system: panel of gram-negative and gram-positive bacteria
- Test settings: over the eight strains of Table 2
- Protocol: The famous microtiter dilution, National Committee for Clinical Laboratory Standards, was adopted to measure the antimicrobial ability of the engineering peptides ([Chou et al., 2016]). In brief, the 50μl with serial dilution was incubated with the same volume bacteria (1×10^5CFU/ml in midi-logarithmic phase) in a 96-well plate 18–24h at 37°C. The positive control was the bacteria treated with culture medium and the negative control was merely culture medium. […]
Ends that are not written are not given here.
Endpoint label: GMMIC, geometric mean of the MICs (µM)
One number for each entry, in µM.

| Substance | Unit info | GMMIC, geometric mean of the MICs |
| --- | --- | --- |
| VKKWVKKWVKKWVKKA-NH2 [VW4] | µM | 3.36 |
| VKKWVKKWVKKAVKKA-NH2 [VW2] | µM | 41.50 |
| VKKWVKKWVKKWVKKW-NH2 [VW5] | µM | 1.68 |
| VKKWVKKAVKKWVKKA-NH2 [VW1] | µM | 76.11 |
| VKKLVKKAVKKLVKKA-NH2 [VL1] | µM | 128.00 |

Go through the items and report each one's GMMIC, geometric mean of the MICs.
1. VKKLVKKLVKKLVKKL-NH2 [VL5]
2. VKKLVKKLVKKAVKKA-NH2 [VL2]

[4.76, 117.38]

Could you share which GMMIC, geometric mean of the MICs value was measured for VKKWVKKWVKKAVKKW-NH2 [VW3] ?
7.34

----------
Consider the following substances; for each one, report its log10 of MIC.
- Tested on: S.typhimurium 7731
- Assay type: cell-based, Salmonella enterica serovar typhimurium C77-31
Ends that are not written are not given here.
Hello, just confirming the data are log10 of MIC with units of µM.

These recorded examples may help you get a feel for the data.
| Substance | Target entity | log10 of MIC |
| --- | --- | --- |
| VKKWVKKWVKKWVKKW-NH2 [VW5] | S.typhimurium 7731 | 0.00 |
| VKKLVKKLVKKLVKKA-NH2 [VL3] | S.typhimurium 7731 | 1.51 |
| VKKWVKKWVKKWVKKA-NH2 [VW4] | S.typhimurium 7731 | 0.30 |
| VKKWVKKWVKKAVKKA-NH2 [VW2] | S.typhimurium 7731 | 1.81 |
| VKKWVKKWVKKAVKKW-NH2 [VW3] | S.typhimurium 7731 | 0.90 |

Dear reader, for each entry below, please note its log10 of MIC.
1. VKKLVKKLVKKAVKKL-NH2 [VL4]
2. VKKLVKKLVKKLVKKL-NH2 [VL5]

[1.20, 0.30]

----------
- Test system: HEK 293T cells
- Type: cell-based, human
- Test settings: ratio of IC50 to GM
Ends that are not written are not given here.
Endpoint label: Therapeutic index (TI)
One number for each entry.

| Substance | Therapeutic index (TI) |
| --- | --- |
| VKKLVKKLVKKAVKKA-NH2 [VL2] | 71.65 |

Below are 3 substances. Give each one its Therapeutic index (TI).
1. VKKLVKKAVKKLVKKA-NH2 [VL1]
2. VKKWVKKWVKKAVKKW-NH2 [VW3]
3. VKKWVKKWVKKWVKKA-NH2 [VW4]

75.40
1449.42
2751.71

----------
- Tested on: MRSA 43300
- Assay type: cell-based, Staphylococcus aureus ATCC 43300
- Test settings: microtiter dilution, 1×10^5CFU/ml, 18–24h at 37°C, visible turbidity
Ends that are not written are not given here.
Endpoint label: MIC

| Substance | MIC |
| --- | --- |
| VKKLVKKLVKKAVKKA-NH2 [VL2] | >64 µM |
| VKKLVKKAVKKLVKKA-NH2 [VL1] | >64 µM |

Now consider a different substance.
Query for MRSA 43300: what MIC does the record show for VKKWVKKAVKKWVKKA-NH2 [VW1] ?
>64 µM

----------
- Tested on: S.typhimurium 7731
- Assay type: cell-based, Salmonella enterica serovar typhimurium C77-31
Ends that are not written are not given here.
Endpoint label: MIC

| Substance | MIC |
| --- | --- |
| VKKLVKKAVKKLVKKA-NH2 [VL1] | >64 µM |

Hi! Can you tell me MIC for each of these substances?
1. VKKWVKKAVKKWVKKA-NH2 [VW1]
2. VKKLVKKLVKKAVKKA-NH2 [VL2]

[">64 µM", ">64 µM"]

----------
Field: Therapeutic index (TI). Provide a value for each of the substances that follow.
- Test system: HEK 293T cells
- Format: cell-based, human
- Test settings: ratio of IC50 to GM
- Procedure: The MTT (3-[4,5 dimethylthiozol-2-yl]-2,5-diphenylterazoliumbromide) dye was selected to analyze the cytotoxicity of peptides against the murine macrophage cell RAW 264.7 (National Collection of Authenticated Cell Cultures, Shanghai, China), human embryonic kidneys (HK293T), and the porcine intestinal epithelial cells (IPEC-J2) as in our previously study ([Li et al., 2020]). In short, the cells (10^4 cells/well) were seeded into 96-well plates and were cultivated overnight. […]
Ends that are not written are not given here.
Answers are plain numbers.

Observe how each entry below is paired with its result.
| Substance | Therapeutic index (TI) |
| --- | --- |
| VKKWVKKWVKKWVKKW-NH2 [VW5] | 5090.03 |
| VKKWVKKAVKKWVKKA-NH2 [VW1] | 86.82 |

Now let's try a different one.
Look up Therapeutic index (TI) for this substance: VKKLVKKLVKKLVKKL-NH2 [VL5]
1574.26
